# Normalized tolerance index TI annotations
# test target: Hordeum HPPD variant L353M, P321R, L320N (Hordeum vulgare, UniProt O48604, L320N/L353M/P321R)
# Construct: His (N); made in house; host or cells: E. coli BL21 (DE3)
# Sequence (O48604 whole entry R146V/R147D/R148G/A164G/L320N/P321R/L353M): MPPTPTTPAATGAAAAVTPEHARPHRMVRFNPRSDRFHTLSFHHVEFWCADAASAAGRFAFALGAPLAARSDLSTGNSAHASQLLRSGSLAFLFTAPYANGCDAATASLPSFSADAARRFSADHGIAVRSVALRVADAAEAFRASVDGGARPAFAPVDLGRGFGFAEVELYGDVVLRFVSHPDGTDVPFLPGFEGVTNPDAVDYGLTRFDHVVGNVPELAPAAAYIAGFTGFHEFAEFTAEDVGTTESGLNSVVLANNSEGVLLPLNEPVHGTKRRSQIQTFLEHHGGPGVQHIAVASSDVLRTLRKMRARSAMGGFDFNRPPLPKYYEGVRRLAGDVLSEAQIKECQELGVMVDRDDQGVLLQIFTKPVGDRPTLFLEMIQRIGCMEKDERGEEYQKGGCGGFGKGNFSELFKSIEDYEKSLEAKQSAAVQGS
# method: HPPD activity assay, Hordeum HPPD mutant L353M, P321R, L320N
# Type: biochemical
# details: normalized on Hordeum wild-type HPPD

- compound: "CC1(C)c2cccnc2C(O)=C(c2ccc(Cl)nc2Cl)S1(=O)=O [Inhibitor 2]"
  Normalized tolerance index TI: 1.4
- compound: "CC1=NOC(c2c(Cl)ccc(C3=C(O)c4ncccc4C(C)(C)S3(=O)=O)c2Cl)C1 (stereo not shown) [Inhibitor 1]"
  Normalized tolerance index TI: 2.1
- compound: "CC1(C)c2cccnc2C(O)=C(c2ccc(Br)cc2C(F)(F)F)S1(=O)=O [Inhibitor 5]"
  Normalized tolerance index TI: 3.2
- compound: "COCCOCc1c(Cl)ccc(C2=C(O)c3ncccc3C(C)(C)S2(=O)=O)c1Cl [Inhibitor 3]"
  Normalized tolerance index TI: 1.9

----------
Recorded Normalized tolerance index TI for the following molecules
# test target: Hordeum HPPD variant L334E (Hordeum vulgare, UniProt O48604, A164G/L334E/R146V/R147D/R148G)
# Construct: His (N); made in house; host or cells: E. coli BL21 (DE3)
# Sequence (O48604 whole entry R146V/R147D/R148G/A164G/L334E): as the sequence (O48604 whole entry R146V/R147D/R148G/A164G/L320N/P321R/L353M) above, with N320L, R321P, L334E, M353L counted along it
# method: HPPD activity assay, Hordeum HPPD mutant L334E
# Format: biochemical
# details: normalized on Hordeum wild-type HPPD

- molecule: "CC1(C)c2cccnc2C(O)=C(c2ccc(Cl)nc2Cl)S1(=O)=O [Inhibitor 2]"
  Normalized tolerance index TI: 1.4
- molecule: "COCCOCc1c(Cl)ccc(C2=C(O)c3ncccc3C(C)(C)S2(=O)=O)c1Cl [Inhibitor 3]"
  Normalized tolerance index TI: 1.5
- molecule: "CC1=NOC(c2c(Cl)ccc(C3=C(O)c4ncccc4C(C)(C)S3(=O)=O)c2Cl)C1 (stereo not shown) [Inhibitor 1]"
  Normalized tolerance index TI: 1.5
- molecule: "CC1(C)c2cccnc2C(O)=C(c2ccc(Br)cc2C(F)(F)F)S1(=O)=O [Inhibitor 5]"
  Normalized tolerance index TI: 2.1

----------
# test target: Hordeum HPPD variant L320Q (Hordeum vulgare, UniProt O48604, A164G/L320Q/R146V/R147D/R148G)
# Construct: His (N); made in house; host or cells: E. coli BL21 (DE3)
# Sequence (O48604 whole entry R146V/R147D/R148G/A164G/L320Q): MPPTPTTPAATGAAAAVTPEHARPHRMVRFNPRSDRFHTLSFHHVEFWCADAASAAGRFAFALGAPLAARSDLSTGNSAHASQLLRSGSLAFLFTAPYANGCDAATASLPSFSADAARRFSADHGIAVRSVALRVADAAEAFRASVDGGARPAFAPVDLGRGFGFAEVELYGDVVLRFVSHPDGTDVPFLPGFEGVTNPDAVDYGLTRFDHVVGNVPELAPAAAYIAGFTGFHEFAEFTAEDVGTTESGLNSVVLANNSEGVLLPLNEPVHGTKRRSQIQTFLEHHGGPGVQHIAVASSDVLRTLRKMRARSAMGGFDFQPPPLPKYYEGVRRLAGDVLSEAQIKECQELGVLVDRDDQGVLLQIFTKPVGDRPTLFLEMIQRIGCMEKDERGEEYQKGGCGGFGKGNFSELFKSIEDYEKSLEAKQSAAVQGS
# method: HPPD activity assay, Hordeum HPPD mutant L320Q
# Assay type: biochemical
# details: normalized on Hordeum wild-type HPPD
// Normalized tolerance index TI lookup, one value per entry
endpoint: Normalized tolerance index TI

- molecule: "CC1=NOC(c2c(Cl)ccc(C3=C(O)c4ncccc4C(C)(C)S3(=O)=O)c2Cl)C1 (stereo not shown)"
  result number: 2.1
- molecule: "CC1(C)c2cccnc2C(O)=C(c2ccc(Cl)nc2Cl)S1(=O)=O"
  result number: 0.7
- molecule: "CC1(C)c2cccnc2C(O)=C(c2ccc(Br)cc2C(F)(F)F)S1(=O)=O"
  result number: 2.9
- molecule: "COCCOCc1c(Cl)ccc(C2=C(O)c3ncccc3C(C)(C)S2(=O)=O)c1Cl"
  result number: 2.4

----------
Reported Normalized tolerance index TI by item:
# test target: Hordeum HPPD variant L320H, P321A (Hordeum vulgare, UniProt O48604, L320H/P321A)
# Construct: His (N); made in house; host or cells: E. coli BL21 (DE3)
# Sequence (O48604 whole entry R146V/R147D/R148G/A164G/L320H/P321A): as the sequence (O48604 whole entry R146V/R147D/R148G/A164G/L320Q) above, with Q320H, P321A counted along it
# method: HPPD activity assay, Hordeum HPPD mutant L320H, P321A
# Assay type: biochemical
# details: normalized on Hordeum wild-type HPPD

- compound: "CC1(C)c2cccnc2C(O)=C(c2ccc(Br)cc2C(F)(F)F)S1(=O)=O [Inhibitor 5]"
  Normalized tolerance index TI: 6.6
- compound: "CC1(C)c2cccnc2C(O)=C(c2ccc(Cl)nc2Cl)S1(=O)=O [Inhibitor 2]"
  Normalized tolerance index TI: 2.5
- compound: "COCCOCc1c(Cl)ccc(C2=C(O)c3ncccc3C(C)(C)S2(=O)=O)c1Cl [Inhibitor 3]"
  Normalized tolerance index TI: 4.8
- compound: "CC1=NOC(c2c(Cl)ccc(C3=C(O)c4ncccc4C(C)(C)S3(=O)=O)c2Cl)C1 (stereo not shown) [Inhibitor 1]"
  Normalized tolerance index TI: 5.2
